- Tested on: HEK-293T
- METHOD NOTES: Incucyte cell viability with HEK293T; note: unitless GR value; below 1 slowed growth and below 0 cell loss
- Format: toxicity, cell-based
- APPLIED CONDITIONS: human, 0 h, 10 µM, compound concentration 10 uM, replicate number 1
The label Satisfied is reserved for Growth Rate strictly under 0.5; Not satisfied covers values equal to or above it.

COCCOCn1c(S(C)(=O)=O)nc2c1c(=O)n(C)c(=O)n2C | Satisfied
Cc1c(NC(=O)COc2ccc(Cl)cc2C(=O)c2cc(F)cc(C(F)(F)F)c2)ccc(C(=O)O)c1F | Satisfied
C[C@@H]1CC(=O)N(C2CC2)N=C1c1ccc(NC(=O)N2Cc3ccncc3C2)cc1 | Not satisfied
CN1CCN(c2ccc(Nc3ncc4cc5n(c4n3)C3(CCCCC3)CNC5=O)nc2)CC1 | Satisfied
COc1ccc(C(=O)N[C@H](C)c2cccc(C(=O)Nc3nc4c(s3)CN(C)CC4)c2)cc1C.O=C(O)C(F)(F)F | Satisfied
Cl.c1ccc2c(c1)CCC[C@H]2Nc1nc2ccccc2[nH]1 | Not satisfied
CCc1cnn2c(NCc3ccc[n+]([O-])c3)cc(N3CCCCC3CCO)nc12 (stereo not drawn) | Satisfied
CC(=O)N1CCC(c2ccc(C(=O)NC(=N)N)cc2C(F)(F)F)CC1 | Not satisfied
N#Cc1c(SCc2csc(-c3ccc(Cl)cc3)n2)nc(N2CCCC2)c(C#N)c1-c1ccc(OCCO)cc1 | Satisfied
Cn1nccc1-c1ccc(Sc2cccc(C3(C(N)=O)CCOCC3)c2)cc1 | Satisfied
CCn1c(=O)c2c(C)c(C(=O)N3CCC(O)CC3)sc2n(CCC(F)(F)F)c1=O | Not satisfied
O=C(NCC1(N2CCN(c3ccccc3)CC2)CCOCC1)c1cccnc1Sc1ccccc1 | Not satisfied
CNC(=O)c1c(F)cccc1Nc1nc(Nc2cc3c(cc2OC)CCN3C(=O)CN(C)C)nc2[nH]ccc12 | Satisfied
N#CN1CC[C@@H](C(=O)Nc2nc3c(s2)CN(C(=O)CN=[N+]=[N-])CC3)C1 | Not satisfied
CN(Cc1cccc(F)c1CNc1cc(F)c(S(=O)(=O)Nc2cscn2)c(F)c1)C(C)(C)C | Not satisfied
CC1(C)OC(=O)c2ccc(Nc3ncc(-c4nnco4)c(N[C@H](CO)c4ccccc4)n3)cc21 | Satisfied
C[C@H](c1ccnc(Nc2nc3ccc(-c4cc(N(C)C)ncn4)cc3[nH]2)c1)N1CCN(C(=O)CC(F)(F)F)CC1 | Not satisfied
CCc1c(-c2ccc3[nH]ncc3c2)cnc(N)c1-c1ccc(O)cc1 | Satisfied
Oc1c(-c2cccnc2)cnn1-c1ccccn1 | Not satisfied
Clc1ccccc1C(c1ccccc1)(c1ccccc1)n1ccnc1 | Satisfied
O=C(NCc1cccc(O)c1)Nc1nc(-c2ccncc2)cs1 | Satisfied
CCCCCCCC/C=C\CCCCCCCC(=O)NCCO [OLEOYLETHANOLAMIDE] | Satisfied
Cl.Cl.c1ccc2c(-c3cnn4cc(-c5ccc(N6CCNCC6)cc5)cnc34)ccnc2c1 | Satisfied
Cl.Clc1ccc(OC[C@H]2CCN2)cn1 | Satisfied
CN1CCC[C@H]1c1cccnc1 | Not satisfied
Cc1nn(-c2nc3ccc(Cl)c(Cl)c3[nH]2)c(O)c1C1OC(=O)c2ccccc21 (stereo not drawn) | Satisfied
Cc1cc(CN)cc(C)c1-c1ncn(C)c1-c1cncn1C.Cl | Satisfied
CC1CCN(C(=O)[C@H](CCn2cccc2C#N)NS(=O)(=O)c2cccc3[nH]ccc23)CC1 | Satisfied
O=S(=O)(Nc1nnc2cc(OCC34CC5CC(CC(C5)C3)C4)c(C3CC3)cn12)C1CC1 | Not satisfied
CS(=O)(=O)NCC[C@H](NC(=O)c1cncc2c1cnn2-c1ccc(F)cc1)c1ccnc(S(C)(=O)=O)c1 | Satisfied
CC(C)(C)OC(=O)CN(Cc1ccc(Cl)cc1)Cc1ccc([N+](=O)[O-])s1 | Satisfied
CNS(=O)(=O)c1ccc(N(C)C)c(Nc2ncnc3cc(OC)c(OC)cc23)c1 | Satisfied
CNC(=O)COc1cc2cc(Nc3nc(N4C[C@H](C)C[C@H](C)C4)ncc3Cl)ccc2n(C)c1=O | Satisfied
Cc1csc(S(=O)(=O)N(CC(C)C)c2cc3c(cc2OCc2ccc(C(=O)O)cc2)CCC3)n1 | Satisfied
O=C(Nc1ccnc(NC(=O)C2CC2)c1)c1c(Cl)cccc1Cl | Satisfied
CC(C)(C)C(=O)NCc1ccc(Cl)c(C(=O)Nc2ncc[nH]2)c1 | Satisfied
CCn1c(-c2nonc2N)nc2ccccc21 [GW549034X] | Satisfied
COCCNC1CCC(Nc2cc(-c3csc(NCC4(C#N)CCOCC4)n3)c(Cl)cn2)CC1 (stereo not drawn) | Satisfied

----------
- Test system: HEK-293T
- METHOD NOTES: Incucyte cell viability with HEK293T; note: unitless GR value; below 1 slowed growth and below 0 cell loss
- Assay type: toxicity, cell-based
- APPLIED CONDITIONS: human, 6 h, 10 µM, compound concentration 10 uM, replicate number 2
MEASURED ATTRIBUTE: Growth Rate

Cn1nccc1Nc1nccc(-c2cc3c(s2)C(C)(C)N(CCN2CCOCC2)C3=O)n1 [TEMUTERKIB] | 0.33
CN1CCN(c2ccc(-n3cc(-c4ccncc4OCC4CCNCC4)cn3)cc2)CC1 | -0.17
C=CC(=O)N1CCC[C@@H](n2nc(-c3ccc(Oc4ccccc4)cc3)c3c(N)ncnc32)C1 [IBRUTINIB] | -0.48
CC(C)(O)[C@H]1CC[C@H](Nc2ccc3ncc(-c4cccc(C(F)(F)F)c4)n3n2)CC1 [NUVISERTIB] | -0.3
COc1cc2c(NC3CCN(C(C)C)CC3)nc(C3CCCCC3)nc2cc1OCCCN1CCCC1 | -0.51
O=C(Nc1c[nH]nc1-c1nc2cc(CN3CCOCC3)ccc2[nH]1)NC1CC1 [AT-9283] | -0.8
O=C(Nc1cccc(C(F)(F)F)c1)c1cccc(-n2cc(-c3ccco3)nn2)c1 | 0.56
CC(C)(C)c1cc(C(C)(C)C)c(NC(=O)c2c[nH]c3ccccc3c2=O)cc1O [IVACAFTOR] | 0.98
CCCCCNC(=O)N1CCC(CN(Cc2ccc(Cl)cc2)Cc2ccc([N+](=O)[O-])s2)C1 (centres undefined) [SR9011] | 0.86

----------
- System: U2OS
- METHOD NOTES: Incucyte cell viability with U2OS; note: unitless GR value; below 1 slowed growth and below 0 cell loss
- Type: toxicity, cell-based
- APPLIED CONDITIONS: human, 12 h, 10 µM, compound concentration 10 uM, replicate number 2
The label Criterion met is reserved for Growth Rate strictly under 0.6; Criterion not met covers values equal to or above it.

c1cnc2cc3c(cc2n1)[C@@H]1CNC[C@H]3C1 [VARENICLINE] | Criterion not met
CC(C)(C#Cc1ccc(NC(=O)COc2ccccc2C(=O)c2ccccc2)c(Cl)c1)C(=O)O [BI 2439] | Criterion not met
CCN1/C(=C/C(C)=O)Sc2ccc(OC(C)=O)cc21 | Criterion not met
CCCCC[C@H](O)/C=C/[C@H]1[C@H](O)CC(=O)[C@@H]1CCCCCCC(=O)O [ALPROSTADIL] | Criterion not met
CC(=O)Nc1ncc(CN2CCC[C@H](Cc3cc(C)nc(C)c3)C2)s1 [JNJ-65355394] | Criterion not met
CNc1nc(-c2cc(C(=O)N3CCN(Cc4ccc(Cl)cc4)CC3)c(Cl)cn2)cs1 | Criterion met
CCN(C)S(=O)(=O)Nc1cccc(-c2ccc3c(NC(=O)C4CC4)n[nH]c3c2)c1 | Criterion met
CC(Sc1nc2c(cnn2-c2cccc(Cl)c2)c(=O)[nH]1)C(N)=O (centres undefined) | Criterion not met
c1ccc2c(-c3coc4cc(-c5ccc(N6CCNCC6)cc5)cnc34)ccnc2c1 | Criterion met

----------
- System: U2OS
- METHOD NOTES: Incucyte cell viability with U2OS; note: unitless GR value; below 1 slowed growth and below 0 cell loss
- Type: toxicity, cell-based
- APPLIED CONDITIONS: human, 0 h, 10 µM, compound concentration 10 uM, replicate number 2
MEASURED ATTRIBUTE: Growth Rate

Cc1nc2ccccc2c(-c2ccc3c4c(ccnc24)CCO3)c1[C@H](OC(C)(C)C)C(=O)O | -0.37
Cl.Cl.N=C(N)NCCC[C@H](NC(=O)CC1(CC(=O)N2CCN(C3c4ccccc4NC(=O)c4ccccc43)CC2)CCCC1)C(=O)NCCn1c(=O)n(-c2ccccc2)n(-c2ccccc2)c1=O (stereo partly drawn) | 0.1
Cl.Cl.O=C1c2ccccc2C(Cc2ccncc2)(Cc2ccncc2)c2ccccc21 | -0.7
N#Cc1c(SCc2csc(-c3ccc(Cl)cc3)n2)nc(N2CCCC2)c(C#N)c1-c1ccc(OCCO)cc1 | 0.14
Cc1cc(OC2CCS(=O)(=O)CC2)cc(C)c1-c1cccc(COc2ccc(C(=O)O)c(F)c2)c1 | 0.93
COc1ccccc1S(=O)(=O)Nc1ccc2c(c1)CN(C)C(=O)N2 | -0.75
CN(CCCCCCC1=C(c2cc(F)cc(F)c2)CCCc2cc(O)ccc21)CCCCS(=O)(=O)CCCC(F)(F)F | -0.54
C=CC(=O)N1CCC[C@@H](n2nc(C(=O)Nc3ccc(CC(=O)N(C)C)c(C)c3C)c3c(N)ncnc32)C1 | -0.77

Reference for the values: ChEMBL document CHEMBL5303304
